molecular target: Kv1.2 (Homo sapiens); construct: host or cells: HEK293 or CHO; experiment: cell-based; assay type: cell-based; conditions: peptide at 20 μM; 100% = no change, <100% = inhibition
Sequence (P16389 whole entry): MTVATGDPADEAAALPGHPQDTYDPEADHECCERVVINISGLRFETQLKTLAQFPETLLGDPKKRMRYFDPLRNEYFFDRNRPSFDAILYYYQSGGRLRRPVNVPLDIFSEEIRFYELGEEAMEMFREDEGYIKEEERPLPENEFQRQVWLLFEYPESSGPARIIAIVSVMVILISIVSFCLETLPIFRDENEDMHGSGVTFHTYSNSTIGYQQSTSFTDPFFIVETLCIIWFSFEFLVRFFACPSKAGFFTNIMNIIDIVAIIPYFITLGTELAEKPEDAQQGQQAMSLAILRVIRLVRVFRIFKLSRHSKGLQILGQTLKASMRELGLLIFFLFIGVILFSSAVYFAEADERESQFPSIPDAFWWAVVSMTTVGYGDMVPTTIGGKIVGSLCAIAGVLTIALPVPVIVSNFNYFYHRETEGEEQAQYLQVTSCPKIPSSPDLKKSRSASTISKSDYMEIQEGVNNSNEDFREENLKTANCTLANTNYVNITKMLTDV
measured-endpoint: Activity of Kv1.2 with peptide (percentage of the reference compound) (%)
Answer format: numeric, % implied, no suffix.

Solved cases below.
substance="6 (GSVRIPVSCKHSGQCLKPCKDAGMRFGKCMNGKCDCTPK) [compound 6]" target_entity="Kv1.2 (Homo sapiens)" observed_measurement=85
substance="13 (GSQKILSNRCNNSSECIPHCIRIFGTRAAKCINRKCYCYP) [compound 13]" target_entity="Kv1.2 (Homo sapiens)" observed_measurement=40
substance="27 (GSACQFWSCNSSCISRGYRQGYCWGIQYKYCQCQ) [compound 27]" target_entity="Kv1.2 (Homo sapiens)" observed_measurement=107
substance="23 (GSCIGEGVPCDENDPRCCFGLVCLKPTLHGIWYKSYYCYKK) [compound 23]" target_entity="Kv1.2 (Homo sapiens)" observed_measurement=106

Item 17 (GSRPTDIKCSASYQCFPVCKSRFGKTNGRCVNGLCDCF) [compound 17] has what recorded Activity of Kv1.2 with peptide (percentage of the reference compound)?
47

Item 3 (GSSEKDCIKHLQRCRENKDCCSKKCSRRGTNPEKRCR) [compound 3] has what recorded Activity of Kv1.2 with peptide (percentage of the reference compound)?
45

Item 4 (GSSCAKPRENCNRMNILCCRGECVCPTFGDCFCYGD) [compound 4] has what recorded Activity of Kv1.2 with peptide (percentage of the reference compound)?
45

Item 38 (GSGIGDPVTCLKSGAICHPVFCPRRYKQIGTCGLPGTKCCKKP) [compound 38] has what recorded Activity of Kv1.2 with peptide (percentage of the reference compound)?
84

Item 15 (GSAVCNLKRCQLSCRSLGLLGKCIGDKCECVKHG) [compound 15] has what recorded Activity of Kv1.2 with peptide (percentage of the reference compound)?
76

Item 34 (GGYSRCQLQGFNCVVRSYGLPTIPCCRGLTCRSYFPGSTYGRCQRY) [compound 34] has what recorded Activity of Kv1.2 with peptide (percentage of the reference compound)?
51

Item 26 (GSVVIGQRCYRSPDCYSACKKLVGKATGKCTNGRCDC) [compound 26] has what recorded Activity of Kv1.2 with peptide (percentage of the reference compound)?
47

Item 12 (GSNFKVEGACSKPCRKYCIDKGARNGKCINGRCHCYY) [compound 12] has what recorded Activity of Kv1.2 with peptide (percentage of the reference compound)?
41

====

// Activity of TRPV1 with peptide (percentage of the reference compound) lookup, one value per entry
target: TRPV1 (Homo sapiens, UniProt Q8NER1); construct: host or cells: HEK293 or CHO; experiment: Ion channel panel (IonWorks Barracuda): TRPV1; assay type: cell-based; conditions: peptide at 20 μM; 100% = no change, <100% = inhibition
Sequence (Q8NER1 whole entry): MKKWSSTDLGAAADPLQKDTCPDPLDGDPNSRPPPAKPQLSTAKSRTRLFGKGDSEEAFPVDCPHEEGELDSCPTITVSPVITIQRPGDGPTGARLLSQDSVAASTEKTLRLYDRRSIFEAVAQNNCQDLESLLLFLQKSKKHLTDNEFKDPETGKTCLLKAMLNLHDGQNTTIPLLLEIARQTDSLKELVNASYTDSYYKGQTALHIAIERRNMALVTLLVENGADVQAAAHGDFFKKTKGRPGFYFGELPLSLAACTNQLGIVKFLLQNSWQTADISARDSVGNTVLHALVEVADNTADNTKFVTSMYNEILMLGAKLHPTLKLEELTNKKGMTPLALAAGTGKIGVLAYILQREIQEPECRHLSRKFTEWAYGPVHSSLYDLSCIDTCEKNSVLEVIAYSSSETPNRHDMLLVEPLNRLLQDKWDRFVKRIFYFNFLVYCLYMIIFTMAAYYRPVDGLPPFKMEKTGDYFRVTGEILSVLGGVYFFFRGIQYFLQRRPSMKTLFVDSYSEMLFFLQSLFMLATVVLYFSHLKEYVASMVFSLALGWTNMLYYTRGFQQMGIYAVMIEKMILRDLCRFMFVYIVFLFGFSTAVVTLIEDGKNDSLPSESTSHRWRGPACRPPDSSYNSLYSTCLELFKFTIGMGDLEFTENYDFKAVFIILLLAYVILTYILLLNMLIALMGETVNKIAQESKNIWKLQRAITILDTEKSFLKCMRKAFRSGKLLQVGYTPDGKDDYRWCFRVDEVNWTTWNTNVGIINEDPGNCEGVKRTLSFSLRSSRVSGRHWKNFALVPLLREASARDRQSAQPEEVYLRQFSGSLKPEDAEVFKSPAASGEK
Answer format: numeric, % implied, no suffix.

Solved cases below.
substance="2 (GSEVIRCSGSKQCYGPCKQQTGCTNSKCMNKVCKCYGCG) [compound 2]" observed_measurement=81
substance="20 (GSQIDTNVKCSGSSKCVKICIDRYNTRGAKCINGRCTCYP) [compound 20]" observed_measurement=102
substance="5 (GSGVPINVKCRGSRDCLDPCKKAGMRFGKCINSKCHCTP) [compound 5]" observed_measurement=101

Now consider the entry below.
Request body: readout Activity of TRPV1 with peptide (percentage of the reference compound), system TRPV1 (Homo sapiens, UniProt Q8NER1), query 25 (GSACLAEYQKCEGSTVPCCPGLSCSAGRFRKTKLCTK) [compound 25] . Return the value.
113

====

// Activity of hERG with peptide, expressed as a percentage of the reference compound lookup, one value per entry
molecular target: hERG (Homo sapiens, UniProt Q12809); test: in vitro; conditions: peptide at 0.2 μM; 100% = no change, <100% = inhibition
Sequence (Q12809 whole entry): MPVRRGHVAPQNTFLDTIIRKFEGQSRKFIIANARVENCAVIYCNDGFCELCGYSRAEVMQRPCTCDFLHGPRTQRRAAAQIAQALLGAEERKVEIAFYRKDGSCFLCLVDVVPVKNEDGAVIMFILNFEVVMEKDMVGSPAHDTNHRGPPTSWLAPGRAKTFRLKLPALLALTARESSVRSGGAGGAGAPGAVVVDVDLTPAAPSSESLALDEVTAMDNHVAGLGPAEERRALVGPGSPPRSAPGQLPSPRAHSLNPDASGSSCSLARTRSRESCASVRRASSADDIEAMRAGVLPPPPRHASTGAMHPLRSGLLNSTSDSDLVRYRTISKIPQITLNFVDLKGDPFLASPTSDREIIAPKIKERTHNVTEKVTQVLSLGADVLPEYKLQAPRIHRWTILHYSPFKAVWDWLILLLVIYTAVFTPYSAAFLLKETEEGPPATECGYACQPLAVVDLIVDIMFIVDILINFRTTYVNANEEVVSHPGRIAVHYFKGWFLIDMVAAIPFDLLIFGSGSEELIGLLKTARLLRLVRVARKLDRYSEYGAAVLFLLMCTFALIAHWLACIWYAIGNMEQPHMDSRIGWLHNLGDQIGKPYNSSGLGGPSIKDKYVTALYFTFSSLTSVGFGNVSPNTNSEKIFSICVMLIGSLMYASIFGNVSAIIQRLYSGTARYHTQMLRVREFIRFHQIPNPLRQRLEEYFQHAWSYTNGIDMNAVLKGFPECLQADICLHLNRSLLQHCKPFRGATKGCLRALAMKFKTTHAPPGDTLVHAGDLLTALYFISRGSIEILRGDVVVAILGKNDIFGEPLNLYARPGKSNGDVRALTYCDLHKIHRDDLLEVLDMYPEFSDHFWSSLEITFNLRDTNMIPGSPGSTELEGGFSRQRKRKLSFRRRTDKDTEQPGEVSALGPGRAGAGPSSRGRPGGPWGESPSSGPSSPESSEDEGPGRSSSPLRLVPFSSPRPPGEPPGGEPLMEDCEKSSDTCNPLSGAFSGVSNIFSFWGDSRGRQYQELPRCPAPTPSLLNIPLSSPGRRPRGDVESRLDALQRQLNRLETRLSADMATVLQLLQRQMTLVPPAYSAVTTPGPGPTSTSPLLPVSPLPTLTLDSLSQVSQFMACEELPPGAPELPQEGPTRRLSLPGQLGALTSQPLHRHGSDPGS
Answer format: numeric, % implied, no suffix.

substance="10 (GSQVQTNVKCQGGSCASVCRREIGVAAGKCINGKCVCYRN) [compound 10]" observed_measurement=97
substance="24 (GSSCAKPGEMCMRIKCCDGQCGCNRGTGRCFCK) [compound 24]" observed_measurement=88
substance="39 (GSGVPTDVKCRGSPQCIQPCKDAGMRFGKCMNGKCHCTPK) [compound 39]" observed_measurement=103
substance="4 (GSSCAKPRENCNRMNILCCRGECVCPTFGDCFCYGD) [compound 4]" observed_measurement=110
substance="16 (GSQFCGTNGKPCVNGQCCGALRCVVTYHYADGVCLKMNP) [compound 16]" observed_measurement=74

Request body: readout Activity of hERG with peptide, expressed as a percentage of the reference compound, system hERG (Homo sapiens, UniProt Q12809), query 13 (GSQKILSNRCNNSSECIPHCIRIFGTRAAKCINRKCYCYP) [compound 13] . Return the value.
89

Request body: readout Activity of hERG with peptide, expressed as a percentage of the reference compound, system hERG (Homo sapiens, UniProt Q12809), query 17 (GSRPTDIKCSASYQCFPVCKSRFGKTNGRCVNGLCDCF) [compound 17] . Return the value.
85

Request body: readout Activity of hERG with peptide, expressed as a percentage of the reference compound, system hERG (Homo sapiens, UniProt Q12809), query 5 (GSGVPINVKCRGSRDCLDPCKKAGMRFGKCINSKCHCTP) [compound 5] . Return the value.
106

Request body: readout Activity of hERG with peptide, expressed as a percentage of the reference compound, system hERG (Homo sapiens, UniProt Q12809), query 6 (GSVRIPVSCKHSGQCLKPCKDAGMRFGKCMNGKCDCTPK) [compound 6] . Return the value.
107

Request body: readout Activity of hERG with peptide, expressed as a percentage of the reference compound, system hERG (Homo sapiens, UniProt Q12809), query 9 (GSGCFGYKCDYYKGCCSGYVCSPTWKWCVRPGPGR) [compound 9] . Return the value.
104

====

target: NR2B (Homo sapiens); construct: host or cells: HEK293 or CHO; experiment: Ion channel panel (IonWorks Barracuda): NR2B; assay type: cell-based; conditions: peptide at 0.2 μM; 100% = no change, <100% = inhibition
measured-endpoint: Activity of NR2B with peptide, expressed as a percentage of the reference compound (%)
Answer format: numeric, % implied, no suffix.

Solved cases below.
substance="14 (GSDRDSCIDKSRCSKYGYYQECQDCCKKAGHNGGTCMFFKCKCA) [compound 14]" display_unit=% observed_measurement=123
substance="16 (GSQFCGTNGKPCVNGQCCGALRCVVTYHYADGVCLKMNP) [compound 16]" display_unit=% observed_measurement=88
substance="4 (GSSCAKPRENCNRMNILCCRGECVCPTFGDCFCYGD) [compound 4]" display_unit=% observed_measurement=117

Now consider the entry below.
Item 11 (GSGDCLPHLKRCKENNDCCSKKCKRRGANPEKRCR) [compound 11] has what recorded Activity of NR2B with peptide, expressed as a percentage of the reference compound?
103

====

// Activity of Nav1.5 with peptide (percentage of the reference compound) lookup, one value per entry
target: Nav1.5 (Homo sapiens); assay: in vitro; details: peptide at 20 μM; first of two Nav1.5 columns (probably TP1); 100% = no change
Sequence (Q14524 whole entry): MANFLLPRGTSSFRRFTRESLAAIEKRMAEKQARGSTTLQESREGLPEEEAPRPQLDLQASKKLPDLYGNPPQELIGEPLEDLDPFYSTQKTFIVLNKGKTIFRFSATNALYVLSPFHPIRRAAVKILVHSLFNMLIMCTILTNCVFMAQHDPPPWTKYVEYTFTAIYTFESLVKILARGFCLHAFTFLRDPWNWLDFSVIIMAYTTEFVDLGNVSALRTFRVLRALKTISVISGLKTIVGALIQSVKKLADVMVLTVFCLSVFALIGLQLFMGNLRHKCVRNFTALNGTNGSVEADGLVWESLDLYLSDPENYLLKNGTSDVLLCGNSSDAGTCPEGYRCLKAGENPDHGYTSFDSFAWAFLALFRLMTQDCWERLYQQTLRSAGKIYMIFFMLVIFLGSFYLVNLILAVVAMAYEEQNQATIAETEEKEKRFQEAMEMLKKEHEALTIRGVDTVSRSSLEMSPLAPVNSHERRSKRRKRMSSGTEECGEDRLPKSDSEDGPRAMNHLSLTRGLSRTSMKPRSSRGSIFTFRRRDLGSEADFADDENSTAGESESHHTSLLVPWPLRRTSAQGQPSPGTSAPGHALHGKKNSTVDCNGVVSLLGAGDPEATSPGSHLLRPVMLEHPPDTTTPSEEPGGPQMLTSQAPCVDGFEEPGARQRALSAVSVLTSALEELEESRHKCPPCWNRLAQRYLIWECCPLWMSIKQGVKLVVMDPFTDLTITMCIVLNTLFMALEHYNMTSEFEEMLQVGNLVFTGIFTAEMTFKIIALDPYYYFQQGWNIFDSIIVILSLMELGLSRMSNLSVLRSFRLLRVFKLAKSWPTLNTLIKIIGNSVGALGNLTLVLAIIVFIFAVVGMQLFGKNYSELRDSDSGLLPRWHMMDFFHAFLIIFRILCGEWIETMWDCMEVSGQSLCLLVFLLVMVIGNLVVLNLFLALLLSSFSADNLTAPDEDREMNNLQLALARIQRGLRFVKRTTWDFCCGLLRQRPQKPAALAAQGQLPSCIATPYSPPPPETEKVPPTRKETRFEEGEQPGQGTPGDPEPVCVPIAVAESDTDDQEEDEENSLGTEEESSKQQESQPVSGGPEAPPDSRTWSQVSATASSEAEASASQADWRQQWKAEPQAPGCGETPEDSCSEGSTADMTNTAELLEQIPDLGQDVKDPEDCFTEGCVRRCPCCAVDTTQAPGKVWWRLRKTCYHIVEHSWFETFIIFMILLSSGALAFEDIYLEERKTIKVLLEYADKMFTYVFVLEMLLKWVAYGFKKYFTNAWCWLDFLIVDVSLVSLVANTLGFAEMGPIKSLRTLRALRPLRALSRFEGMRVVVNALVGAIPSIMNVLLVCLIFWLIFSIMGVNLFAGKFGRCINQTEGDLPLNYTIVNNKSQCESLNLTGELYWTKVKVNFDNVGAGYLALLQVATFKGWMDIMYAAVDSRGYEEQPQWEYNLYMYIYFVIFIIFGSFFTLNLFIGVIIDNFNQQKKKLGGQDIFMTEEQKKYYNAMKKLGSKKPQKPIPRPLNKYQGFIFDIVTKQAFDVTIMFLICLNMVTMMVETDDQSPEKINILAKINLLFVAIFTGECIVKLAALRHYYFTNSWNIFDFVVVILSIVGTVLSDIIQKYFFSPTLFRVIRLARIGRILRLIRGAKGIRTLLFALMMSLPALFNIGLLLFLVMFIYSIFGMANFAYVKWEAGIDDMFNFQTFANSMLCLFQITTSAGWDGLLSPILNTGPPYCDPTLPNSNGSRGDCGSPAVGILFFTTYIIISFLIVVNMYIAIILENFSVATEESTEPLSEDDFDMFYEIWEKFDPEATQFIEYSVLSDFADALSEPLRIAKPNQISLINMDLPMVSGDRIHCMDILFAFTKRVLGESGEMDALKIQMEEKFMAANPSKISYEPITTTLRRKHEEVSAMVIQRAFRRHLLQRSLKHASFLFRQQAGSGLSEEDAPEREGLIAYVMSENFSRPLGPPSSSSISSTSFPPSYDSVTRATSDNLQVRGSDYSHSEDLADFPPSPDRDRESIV
Answer format: numeric, % implied, no suffix.

Solved cases below.
substance="6 (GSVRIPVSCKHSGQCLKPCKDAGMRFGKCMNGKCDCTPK) [compound 6]" display_unit=% observed_measurement=116
substance="11 (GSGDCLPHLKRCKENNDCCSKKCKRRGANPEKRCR) [compound 11]" display_unit=% observed_measurement=113
substance="3 (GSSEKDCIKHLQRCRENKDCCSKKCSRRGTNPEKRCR) [compound 3]" display_unit=% observed_measurement=114

Item 4 (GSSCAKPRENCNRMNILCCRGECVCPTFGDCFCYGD) [compound 4] has what recorded Activity of Nav1.5 with peptide (percentage of the reference compound)?
98

Item 23 (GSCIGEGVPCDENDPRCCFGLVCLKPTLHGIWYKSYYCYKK) [compound 23] has what recorded Activity of Nav1.5 with peptide (percentage of the reference compound)?
85

Item 12 (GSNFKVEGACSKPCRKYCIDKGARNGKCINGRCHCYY) [compound 12] has what recorded Activity of Nav1.5 with peptide (percentage of the reference compound)?
131

====

molecular target: NR2A (Homo sapiens, UniProt Q12879); construct: host or cells: HEK293 or CHO; test: Ion channel panel (IonWorks Barracuda): NR2A; format: cell-based; settings: peptide at 20 μM; 100% = no change, <100% = inhibition
measured-endpoint: Activity of NR2A with peptide (percentage of the reference compound) (%)
Answer format: numeric, % implied, no suffix.

substance="11 (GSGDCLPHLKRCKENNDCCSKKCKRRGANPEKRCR) [compound 11]" display_unit=% observed_measurement=106
substance="16 (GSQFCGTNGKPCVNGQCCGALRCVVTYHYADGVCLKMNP) [compound 16]" display_unit=% observed_measurement=95
substance="25 (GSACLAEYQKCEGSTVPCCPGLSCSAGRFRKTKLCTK) [compound 25]" display_unit=% observed_measurement=106

Item 4 (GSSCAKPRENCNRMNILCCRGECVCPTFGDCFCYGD) [compound 4] has what recorded Activity of NR2A with peptide (percentage of the reference compound)?
90

Item 18 (GSNCAGYMRECKEKLCCSGYVCSSRWKWCVLPAPWRR) [compound 18] has what recorded Activity of NR2A with peptide (percentage of the reference compound)?
79
